molecular target: PCSK9 (Homo sapiens (Human)); test: PCSK9 Alexa FRET Plus assay (displacement of AlexaFluor647 tagged cyclic peptide Reagent B); type: binding; details: Alexa FRET Plus, 0.5 nM PCSK9, 960 nM AF cyclic peptide Reagent B; read-out: IC50
Starred links: 1 amine or outer side, 2 acyl side, 3 side chain; linkers in the order of their positions; H or OH if unused. Positions of bridges follow the written chain, without caps; N, C: chain ends. Non-standard residues stand in square brackets, D forms with d. Residues, ends and D or L forms follow the SMILES beside them. Trp(5-F) = N[C@@H](Cc1c[nH]c2ccc(F)cc12)C(=O)O; Phe(4-CH2NH2) = NCc1ccc(C[C@H](N)C(=O)O)cc1; Pro(cis-4-F) = O=C(O)[C@@H]1C[C@H](F)CN1; isoGln = NC(=O)[C@H](CCC(=O)[*:2])N[*:1]; X7 = O=C(Cc1ccc(CN[*:1])cc1)[*:2]; X44 = O=C(C[*:2])NCCCC(=O)[*:1]; Suc = O=C(CCC(=O)[*:2])[*:1]; αMeP = C[C@@]1(C(=O)O)CCCN1
Here, each record is paired with measured IC50 data.

COc1ccc(C[C@@H]2NC(=O)[C@H](Cc3cnc[nH]3)NC(=O)[C@H](CC(=O)O)NC(=O)[C@H](Cc3c[nH]c4ccc(F)cc34)NC(=O)[C@H](Cc3c[nH]c4ccc(F)cc34)NC(=O)[C@@H](C)NC(=O)CCc3cn(nn3)-c3ccc(cc3)C[C@@H](C(N)=O)NC(=O)[C@]3(C)CCCN3C2=O)cc1
0.1 to 100 nM
COc1ccc(C[C@@H]2NC(=O)[C@H]([C@@H](C)O)NC(=O)[C@@H]3C[C@H](F)CN3C(=O)[C@H](Cc3c[nH]c4ccc(F)cc34)NC(=O)[C@H](Cc3c[nH]c4ccc(F)cc34)NC(=O)[C@@H](C)NC(=O)[C@H](CCCCN)NC(=O)CCCNC(=O)COc3ccc(cc3)C[C@@H](C(N)=O)NC(=O)[C@]3(C)CCCN3C2=O)cc1 [Compound 092] (K[dA][Trp(5-F)][Trp(5-F)][Pro(cis-4-F)]TY(Me)[αMeP]Y-NH2; linker N-9 via X44)
0.1 to 100 nM

Record lookup: for PCSK9 (Homo sapiens (Human)), what IC50 belongs to COc1ccc(C[C@@H]2NC(=O)[C@H]([C@@H](C)O)NC(=O)[C@@H]3C[C@H](F)CN3C(=O)[C@H](Cc3c[nH]c4ccc(F)cc34)NC(=O)[C@H](Cc3c[nH]c4ccc(F)cc34)NC(=O)[C@@H](C)NC(=O)[C@H](CCCCN)NC(=O)CCC(=O)NCc3ccc(cc3)C[C@@H](C(N)=O)NC(=O)[C@]3(C)CCCN3C2=O)cc1 [Compound 097] (K[dA][Trp(5-F)][Trp(5-F)][Pro(cis-4-F)]TY(Me)[αMeP][Phe(4-CH2NH2)]-NH2; linker N-9 via Suc) ? 500 to 5000 nM

Record lookup: for PCSK9 (Homo sapiens (Human)), what IC50 belongs to COc1ccc(C[C@@H]2NC(=O)[C@H](Cc3cnc[nH]3)NC(=O)[C@H](CC(=O)O)NC(=O)[C@H](Cc3c[nH]c4ccc(F)cc34)NC(=O)[C@H](Cc3c[nH]c4ccc(F)cc34)NC(=O)[C@@H](C)NC(=O)[C@H](NC(C)=O)CCCCNC(=O)Cc3ccc(cc3)CNC(=O)CC[C@@H](C(N)=O)NC(=O)[C@]3(C)CCCN3C2=O)cc1 [Compound 398] (Ac-[dK][dA][Trp(5-F)][Trp(5-F)]DHY(Me)[αMeP][isoGln][X7]; lactam 1-C) ? 100 to 500 nM

* * *

target: PCSK9 (Homo sapiens (Human), UniProt Q8NBP7); test: PCSK9 Alexa FRET Standard assay (displacement of AlexaFluor647 tagged cyclic peptide Reagent A); assay type: binding; conditions: PCSK9 Alexa FRET Standard assay, 0.5 nM PCSK9, 20 nM AF cyclic peptide Reagent A; read-out: IC50
Sequence (Q8NBP7 153-692): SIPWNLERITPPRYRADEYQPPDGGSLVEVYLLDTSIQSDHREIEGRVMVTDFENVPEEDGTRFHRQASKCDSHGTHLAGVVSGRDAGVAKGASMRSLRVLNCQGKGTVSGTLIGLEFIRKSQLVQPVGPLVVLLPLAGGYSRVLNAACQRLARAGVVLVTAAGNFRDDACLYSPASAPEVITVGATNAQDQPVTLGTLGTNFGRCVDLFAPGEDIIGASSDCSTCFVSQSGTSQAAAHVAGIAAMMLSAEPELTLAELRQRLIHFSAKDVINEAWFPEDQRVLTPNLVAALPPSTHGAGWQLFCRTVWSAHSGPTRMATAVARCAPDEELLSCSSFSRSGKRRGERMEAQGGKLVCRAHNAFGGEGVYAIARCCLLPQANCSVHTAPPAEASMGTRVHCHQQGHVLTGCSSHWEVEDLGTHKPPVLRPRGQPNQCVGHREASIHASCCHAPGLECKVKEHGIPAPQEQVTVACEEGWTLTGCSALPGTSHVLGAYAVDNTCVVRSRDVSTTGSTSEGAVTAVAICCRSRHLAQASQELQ
Starred links: 1 amine or outer side, 2 acyl side, 3 side chain; linkers in the order of their positions; H or OH if unused. Positions of bridges follow the written chain, without caps; N, C: chain ends. Non-standard residues stand in square brackets, D forms with d. Residues, ends and D or L forms follow the SMILES beside them. Trp(5-F) = N[C@@H](Cc1c[nH]c2ccc(F)cc12)C(=O)O; TBMB = c1c(C[*:1])cc(C[*:3])cc1C[*:2]; αMeP = C[C@@]1(C(=O)O)CCCN1; Mpa = O=C(O)CCS
measurement-kind: IC50

C[C@@]12CCCN1C(=O)[C@H](Cc1ccc(O)cc1)NC(=O)CN1C(=O)[C@H](N=C(C3CCCCC3)c3ccccc31)NC(=O)[C@H](Cc1c[nH]c3ccc(F)cc13)NC(=O)[C@H](Cc1c[nH]c3ccc(F)cc13)NC(=O)CNC(=O)[C@H](CCCCN)NC(=O)CCSCc1cccc(c1)CSC[C@@H](C(N)=O)NC2=O [Compound 128]
21 to 50 µM

I would be grateful if you could share the reported IC50 for CC(=O)N[C@H]1CCCc2cn(nn2)CCC[C@@H](C(N)=O)NC(=O)[C@]2(C)CCCN2C(=O)[C@H](Cc2ccc(O)cc2)NC(=O)[C@H](Cc2cnc[nH]2)NC(=O)[C@H](CC(=O)O)NC(=O)[C@H](Cc2c[nH]c3ccc(F)cc23)NC(=O)[C@H](Cc2c[nH]c3ccc(F)cc23)NC(=O)CNC(=O)[C@H](C)NC1=O [Compound 342] . 1 to 12.1 µM

I would be grateful if you could share the reported IC50 for COc1ccc(C[C@@H]2NC(=O)[C@H]([C@@H](C)O)NC(=O)[C@@H]3CCCN3C(=O)[C@H](Cc3c[nH]c4ccc(F)cc34)NC(=O)[C@H](Cc3c[nH]c4ccc(F)cc34)NC(=O)[C@@H](C)NC(=O)[C@H](CCCCN)NC(=O)CCSCc3cc(C)cc(c3)CSC[C@@H](C(N)=O)NC(=O)[C@]3(C)CCCN3C2=O)cc1 [Compound 062] ([Mpa]K[dA][Trp(5-F)][Trp(5-F)]PTY(Me)[αMeP]C-NH2; linker 1-10 via TBMB) . 1 to 12.1 µM

* * *

Target: PCSK9 (Homo sapiens (Human), UniProt Q8NBP7)
Assay: PCSK9 Alexa FRET Plus assay (displacement of AlexaFluor647 tagged cyclic peptide Reagent B)
Type: binding
Conditions: IC50, Alexa FRET Plus, 0.5 nM PCSK9, 960 nM AF cyclic peptide Reagent B
Protocol: A solution containing 1 nM biotinylated PCSK9+2.5 nM Lance Streptavidin Europium (Strep-Eu) was made in 50 mM HEPES pH 7.4, 0.15 M NaCl, 5 mM CaCl2), 0.01% BSA, and 0.01% Surfactant P20. […] The reaction was incubated at room temperature for at least two hours prior to fluorescence measurements using an Envision Multilabel Reader. IC50 values were determined by fitting data to a sigmoidal dose-response curve using nonlinear regression. […]
Starred links: 1 amine or outer side, 2 acyl side, 3 side chain; linkers in the order of their positions; H or OH if unused. Positions of bridges follow the written chain, without caps; N, C: chain ends. Non-standard residues stand in square brackets, D forms with d. Residues, ends and D or L forms follow the SMILES beside them. Trp(5-F) = N[C@@H](Cc1c[nH]c2ccc(F)cc12)C(=O)O; X45 = O=C(CCC(=O)[*:1])NCc1ccc(CCN[*:2])cc1; Pro(cis-4-F) = O=C(O)[C@@H]1C[C@H](F)CN1; aThr = C[C@H](O)[C@H](N)C(=O)O; αMeP = C[C@@]1(C(=O)O)CCCN1
Here, each record is paired with measured IC50 data.

Past entries and their recorded results:
C[C@@]12CCCN1C(=O)[C@H](Cc1ccc(O)cc1)NC(=O)CN1C(=O)[C@H](N=C(c3ccccc3)c3ccccc31)NC(=O)[C@H](Cc1c[nH]c3ccc(F)cc13)NC(=O)[C@H](Cc1c[nH]c3ccc(F)cc13)NC(=O)CNC(=O)[C@H](CCCCN)NC(=O)CCSCc1cccc(c1)CSC[C@@H](C(N)=O)NC2=O
0.1 to 100 nM
C[C@@]12CCCN1C(=O)[C@H](Cc1ccc(O)cc1)NC(=O)CN1C(=O)[C@@H](N=C(c3ccccc3)c3ccccc31)NC(=O)[C@H](Cc1c[nH]c3ccc(F)cc13)NC(=O)[C@H](Cc1c[nH]c3ccc(F)cc13)NC(=O)CNC(=O)[C@H](CCCCN)NC(=O)CCSCc1cccc(c1)CSC[C@@H](C(N)=O)NC2=O
0.1 to 100 nM
COc1ccc(C[C@@H]2NC(=O)[C@H]([C@@H](C)O)NC(=O)[C@@H]3C[C@H](F)CN3C(=O)[C@H](Cc3c[nH]c4ccc(F)cc34)NC(=O)[C@H](Cc3c[nH]c4ccc(F)cc34)NC(=O)[C@@H](C)NC(=O)CNC(=O)[C@@H](NC(C)=O)CCNCc3ccc(cc3)C[C@@H](C(N)=O)NC(=O)[C@]3(C)CCCN3C2=O)cc1
500 to 5000 nM
COc1ccc(C[C@@H]2NC(=O)[C@H]([C@@H](C)O)NC(=O)[C@@H]3C[C@H](F)CN3C(=O)[C@H](Cc3c[nH]c4ccc(F)cc34)NC(=O)[C@H](Cc3c[nH]c4ccc(F)cc34)NC(=O)[C@@H](C)NC(=O)CNC(=O)CCCCNCc3ccc(cc3)C[C@@H](C(N)=O)NC(=O)[C@]3(C)CCCN3C2=O)cc1
100 to 500 nM

I would be grateful if you could share the reported IC50 for COc1ccc(C[C@@H]2NC(=O)[C@H]([C@H](C)O)NC(=O)[C@@H]3C[C@H](F)CN3C(=O)[C@H](Cc3c[nH]c4ccc(F)cc34)NC(=O)[C@H](Cc3c[nH]c4ccc(F)cc34)NC(=O)[C@@H](C)NC(=O)[C@H](CCCCN)NC(=O)CCC(=O)NCc3ccc(cc3)CCNC(=O)[C@]3(C)CCCN3C2=O)cc1 [Compound 111] (K[dA][Trp(5-F)][Trp(5-F)][Pro(cis-4-F)][aThr]Y(Me)[αMeP]; linker N-C via X45) . 0.1 to 100 nM
